# System: RAW264.7
# EXPERIMENTAL_PROTOCOL: Inhibition of LPS-induced nitric oxide production in mouse RAW264.7 cells preincubated for 1 hr followed by LPS stimulation by Greiss assay
# Assay type: functional, cell-based
READOUT_NAME: IC50 (µM)
Answer format: numeric, µM implied, no suffix.

Lab book: IC50 of COc1cc(/C=C/C(=O)/C=C/c2ccc(O)c(OC)c2)ccc1[O-].[Na+] noted as 7.7

Every entry's value here was drawn from ChEMBL document CHEMBL3785061.
